# test.method.notes: Cytotoxicity against human HEK293 cells expressing swAPP assessed as cell viability at 25 uM after 48 hrs by MTT assay
# Format: cell-based
# conditions: read-out: Activity
metric: viability at 48 h, 25 µM

Data point: CC(C)c1c(NC(=O)/C=C/c2ccc(O)c(O)c2)cc2c(c1[N+](=O)[O-])CC[C@H]1[C@](C)(CNC(=O)/C=C/c3ccc(O)c(O)c3)CCC[C@]21C ; viability at 48 h, 25 µM = > 90%

---

# assay.target: UniProtKB P05067
# Sequence (P05067 whole entry): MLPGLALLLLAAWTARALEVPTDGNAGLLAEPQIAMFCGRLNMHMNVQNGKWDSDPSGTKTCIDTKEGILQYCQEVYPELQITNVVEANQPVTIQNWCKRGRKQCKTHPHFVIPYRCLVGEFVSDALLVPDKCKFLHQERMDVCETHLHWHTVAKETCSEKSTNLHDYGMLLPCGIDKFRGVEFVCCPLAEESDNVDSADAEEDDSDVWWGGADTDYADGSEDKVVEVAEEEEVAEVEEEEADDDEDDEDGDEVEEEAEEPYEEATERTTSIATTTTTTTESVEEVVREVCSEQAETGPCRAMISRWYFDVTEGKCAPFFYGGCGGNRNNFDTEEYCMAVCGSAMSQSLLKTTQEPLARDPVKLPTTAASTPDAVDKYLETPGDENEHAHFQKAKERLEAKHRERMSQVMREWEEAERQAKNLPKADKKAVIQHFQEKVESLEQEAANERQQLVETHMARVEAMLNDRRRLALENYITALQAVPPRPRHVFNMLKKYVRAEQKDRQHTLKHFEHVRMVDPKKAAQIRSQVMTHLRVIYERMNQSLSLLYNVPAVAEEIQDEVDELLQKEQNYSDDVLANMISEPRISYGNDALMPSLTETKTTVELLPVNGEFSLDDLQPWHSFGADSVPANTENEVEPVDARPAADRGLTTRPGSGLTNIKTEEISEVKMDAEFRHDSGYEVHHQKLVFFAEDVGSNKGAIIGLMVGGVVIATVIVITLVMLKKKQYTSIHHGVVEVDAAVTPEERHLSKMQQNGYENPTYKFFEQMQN
# test.method.notes: Inhibition of amyloid beta-42 (unknown origin) self-mediated aggregation at 50 uM by thioflavin-T fluorescence assay
Activity calls are given as the source filed them. The rule behind the calls is not given here.
metric: inhibition

[
  {
    "smiles.str": "CC(=O)NC[C@]1(C)CCC[C@]2(C)c3ccc(C(C)C)cc3/C(=N/NC(=O)c3ccncc3)C[C@@H]12",
    "assay.target": "UniProtKB P05067",
    "inhibition": "inactive"
  },
  {
    "smiles.str": "CC(=O)NC[C@]1(C)CCC[C@]2(C)c3ccc(C(C)C)cc3/C(=N\\NC(N)=S)C[C@@H]12",
    "assay.target": "UniProtKB P05067",
    "inhibition": "inactive"
  },
  {
    "smiles.str": "CC(C)c1c(N)cc2c(c1[N+](=O)[O-])CC[C@H]1[C@](C)(CN)CCC[C@]21C",
    "assay.target": "UniProtKB P05067",
    "inhibition": "inactive"
  },
  {
    "smiles.str": "CC(=O)NC[C@]1(C)CCC[C@]2(C)c3ccc(C(C)C)cc3/C(=N/OC(=O)c3ccc(Cl)cc3)C[C@@H]12",
    "assay.target": "UniProtKB P05067",
    "inhibition": "inactive"
  },
  {
    "smiles.str": "CC(C)c1ccc2c(c1)/C(=N/O)C[C@H]1[C@](C)(CNC(=O)C(F)(F)F)CCC[C@]21C",
    "assay.target": "UniProtKB P05067",
    "inhibition": "inactive"
  },
  {
    "smiles.str": "CC(=O)Oc1cc(C(=O)NC[C@]2(C)CCC[C@]3(C)c4ccc(C(C)C)cc4CC[C@@H]23)cc(OC(C)=O)c1OC(C)=O",
    "assay.target": "UniProtKB P05067",
    "inhibition": "55.3%"
  },
  {
    "smiles.str": "CC(=O)NC[C@]1(C)CCC[C@]2(C)c3ccc(C(C)C)cc3/C(=N\\NC(N)=O)C[C@@H]12",
    "assay.target": "UniProtKB P05067",
    "inhibition": "inactive"
  }
]

API: the following record is the query input.
Measured inhibition for this entry CC(C)c1ccc2c(c1)CC[C@H]1[C@](C)(C/N=C\c3ccc(O)cc3O)CCC[C@]21C on UniProtKB P05067: 24.5%
